Target: Corticotropin-releasing factor receptor 2/Corticotropin-releasing factor-binding protein (Homo sapiens, UniProt P24387+Q13324)
Sequence (Q13324 whole entry): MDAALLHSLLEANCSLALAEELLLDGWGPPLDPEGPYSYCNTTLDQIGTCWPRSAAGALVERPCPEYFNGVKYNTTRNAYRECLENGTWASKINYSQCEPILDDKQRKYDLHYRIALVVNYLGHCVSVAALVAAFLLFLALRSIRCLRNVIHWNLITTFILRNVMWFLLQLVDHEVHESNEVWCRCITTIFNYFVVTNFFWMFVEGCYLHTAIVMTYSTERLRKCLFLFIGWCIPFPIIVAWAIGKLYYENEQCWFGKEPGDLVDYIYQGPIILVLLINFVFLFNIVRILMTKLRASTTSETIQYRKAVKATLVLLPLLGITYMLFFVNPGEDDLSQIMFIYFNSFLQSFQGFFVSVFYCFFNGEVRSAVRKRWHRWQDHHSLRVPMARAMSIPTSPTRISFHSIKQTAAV
Sequence (P24387 whole entry): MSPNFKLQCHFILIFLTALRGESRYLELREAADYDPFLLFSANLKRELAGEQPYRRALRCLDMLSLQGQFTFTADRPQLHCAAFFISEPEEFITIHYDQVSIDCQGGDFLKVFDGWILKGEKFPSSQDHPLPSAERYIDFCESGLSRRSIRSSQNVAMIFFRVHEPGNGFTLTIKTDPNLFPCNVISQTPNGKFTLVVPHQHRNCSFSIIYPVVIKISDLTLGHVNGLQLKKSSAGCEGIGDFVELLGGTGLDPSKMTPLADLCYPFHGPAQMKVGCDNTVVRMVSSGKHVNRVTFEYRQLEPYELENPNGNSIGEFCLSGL
Experiment: Dose Response confirmation of uHTS hits for small molecule antagonists of the CRF-binding protein and CRF-R2 receptor complex.
Type: functional
Conditions: read-out: IC50_Mean
Activity calls are given as the source filed them.
Pick one: Y (active), N (inactive)

Example cases with answers are listed next.
MOLECULE: CN(Cc1ccccc1)C(=O)c1cccc(NC(=O)Cc2ccc(NC(=O)C3CCCN(C(=O)CCc4ccccc4)C3)cc2)c1 (configuration not stated)
CLASS_ASSIGNMENT: N
//
MOLECULE: Nc1c(C(=O)N2CCCCCC2)oc2ccccc12
CLASS_ASSIGNMENT: N
//
MOLECULE: Cc1ccc(S(=O)(=O)NN=C(S)Nc2cccc(F)c2)cc1
CLASS_ASSIGNMENT: N
//
MOLECULE: Cc1cc(NC(=O)Cn2nc3c(cc2=O)CCCC3)ccc1Br
CLASS_ASSIGNMENT: N
//
MOLECULE: O=[N+]([O-])c1ccc(-c2cc(O)n3nc(-c4ccc(F)cc4)cc3n2)cc1
CLASS_ASSIGNMENT: Y

Request: Called result for CC(N=C1NS(=O)(=O)c2ccccc21)C(=O)N1CCc2ccccc2C1 (configuration not stated)
Result: N

Request: What classification did COc1cccc(NC(=O)c2cc(S(=O)(=O)N3CCc4ccccc43)cn2C)c1 end up with in this test?
Result: Y

* * *

Molecular target: UniProtKB P9WQA3
Sequence (P9WQA3 whole entry): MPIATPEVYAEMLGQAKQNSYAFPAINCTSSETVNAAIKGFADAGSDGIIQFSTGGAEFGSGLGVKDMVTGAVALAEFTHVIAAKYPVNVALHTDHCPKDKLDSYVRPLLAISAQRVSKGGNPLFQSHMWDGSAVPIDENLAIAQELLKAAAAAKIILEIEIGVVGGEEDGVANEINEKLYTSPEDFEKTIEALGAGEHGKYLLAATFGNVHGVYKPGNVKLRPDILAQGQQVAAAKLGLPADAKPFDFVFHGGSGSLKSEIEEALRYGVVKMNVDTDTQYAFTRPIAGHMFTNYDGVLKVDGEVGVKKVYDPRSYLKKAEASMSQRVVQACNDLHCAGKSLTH
Assay: Fluorescence-based biochemical high throughput dose response assay for inhibitors of the fructose-bisphosphate aldolase (FBA) of M. tuberculosis.
Type: functional
Activity calls are given as the source filed them.
Field 'call' accepts active, inactive

COMPOUND: COc1ccc2nc3c(O)n(Cc4ccncc4)cnc-3c2c1
CLASS_ASSIGNMENT: active

Request: Identify the outcome logged in this assay for the compound shown: Cc1nc2cc(-c3cccs3)nn2c(O)c1C
Result: active

Request: For CCS(=O)(=O)N1N=C(c2ccc(NS(C)(=O)=O)cc2)CC1c1ccccc1 (centres undefined) , what call appears in the results of this test?
Result: active

Request: Answer briefly: the call reported for O=C1C(=O)N(c2ccccc2)C(c2ccccc2)C1c1ccccc1 (centres undefined) in this assay.
Result: inactive

* * *

Reported IC50 by item:
Target: Fatty acid synthase (Homo sapiens)
Sequence (P49327 whole entry): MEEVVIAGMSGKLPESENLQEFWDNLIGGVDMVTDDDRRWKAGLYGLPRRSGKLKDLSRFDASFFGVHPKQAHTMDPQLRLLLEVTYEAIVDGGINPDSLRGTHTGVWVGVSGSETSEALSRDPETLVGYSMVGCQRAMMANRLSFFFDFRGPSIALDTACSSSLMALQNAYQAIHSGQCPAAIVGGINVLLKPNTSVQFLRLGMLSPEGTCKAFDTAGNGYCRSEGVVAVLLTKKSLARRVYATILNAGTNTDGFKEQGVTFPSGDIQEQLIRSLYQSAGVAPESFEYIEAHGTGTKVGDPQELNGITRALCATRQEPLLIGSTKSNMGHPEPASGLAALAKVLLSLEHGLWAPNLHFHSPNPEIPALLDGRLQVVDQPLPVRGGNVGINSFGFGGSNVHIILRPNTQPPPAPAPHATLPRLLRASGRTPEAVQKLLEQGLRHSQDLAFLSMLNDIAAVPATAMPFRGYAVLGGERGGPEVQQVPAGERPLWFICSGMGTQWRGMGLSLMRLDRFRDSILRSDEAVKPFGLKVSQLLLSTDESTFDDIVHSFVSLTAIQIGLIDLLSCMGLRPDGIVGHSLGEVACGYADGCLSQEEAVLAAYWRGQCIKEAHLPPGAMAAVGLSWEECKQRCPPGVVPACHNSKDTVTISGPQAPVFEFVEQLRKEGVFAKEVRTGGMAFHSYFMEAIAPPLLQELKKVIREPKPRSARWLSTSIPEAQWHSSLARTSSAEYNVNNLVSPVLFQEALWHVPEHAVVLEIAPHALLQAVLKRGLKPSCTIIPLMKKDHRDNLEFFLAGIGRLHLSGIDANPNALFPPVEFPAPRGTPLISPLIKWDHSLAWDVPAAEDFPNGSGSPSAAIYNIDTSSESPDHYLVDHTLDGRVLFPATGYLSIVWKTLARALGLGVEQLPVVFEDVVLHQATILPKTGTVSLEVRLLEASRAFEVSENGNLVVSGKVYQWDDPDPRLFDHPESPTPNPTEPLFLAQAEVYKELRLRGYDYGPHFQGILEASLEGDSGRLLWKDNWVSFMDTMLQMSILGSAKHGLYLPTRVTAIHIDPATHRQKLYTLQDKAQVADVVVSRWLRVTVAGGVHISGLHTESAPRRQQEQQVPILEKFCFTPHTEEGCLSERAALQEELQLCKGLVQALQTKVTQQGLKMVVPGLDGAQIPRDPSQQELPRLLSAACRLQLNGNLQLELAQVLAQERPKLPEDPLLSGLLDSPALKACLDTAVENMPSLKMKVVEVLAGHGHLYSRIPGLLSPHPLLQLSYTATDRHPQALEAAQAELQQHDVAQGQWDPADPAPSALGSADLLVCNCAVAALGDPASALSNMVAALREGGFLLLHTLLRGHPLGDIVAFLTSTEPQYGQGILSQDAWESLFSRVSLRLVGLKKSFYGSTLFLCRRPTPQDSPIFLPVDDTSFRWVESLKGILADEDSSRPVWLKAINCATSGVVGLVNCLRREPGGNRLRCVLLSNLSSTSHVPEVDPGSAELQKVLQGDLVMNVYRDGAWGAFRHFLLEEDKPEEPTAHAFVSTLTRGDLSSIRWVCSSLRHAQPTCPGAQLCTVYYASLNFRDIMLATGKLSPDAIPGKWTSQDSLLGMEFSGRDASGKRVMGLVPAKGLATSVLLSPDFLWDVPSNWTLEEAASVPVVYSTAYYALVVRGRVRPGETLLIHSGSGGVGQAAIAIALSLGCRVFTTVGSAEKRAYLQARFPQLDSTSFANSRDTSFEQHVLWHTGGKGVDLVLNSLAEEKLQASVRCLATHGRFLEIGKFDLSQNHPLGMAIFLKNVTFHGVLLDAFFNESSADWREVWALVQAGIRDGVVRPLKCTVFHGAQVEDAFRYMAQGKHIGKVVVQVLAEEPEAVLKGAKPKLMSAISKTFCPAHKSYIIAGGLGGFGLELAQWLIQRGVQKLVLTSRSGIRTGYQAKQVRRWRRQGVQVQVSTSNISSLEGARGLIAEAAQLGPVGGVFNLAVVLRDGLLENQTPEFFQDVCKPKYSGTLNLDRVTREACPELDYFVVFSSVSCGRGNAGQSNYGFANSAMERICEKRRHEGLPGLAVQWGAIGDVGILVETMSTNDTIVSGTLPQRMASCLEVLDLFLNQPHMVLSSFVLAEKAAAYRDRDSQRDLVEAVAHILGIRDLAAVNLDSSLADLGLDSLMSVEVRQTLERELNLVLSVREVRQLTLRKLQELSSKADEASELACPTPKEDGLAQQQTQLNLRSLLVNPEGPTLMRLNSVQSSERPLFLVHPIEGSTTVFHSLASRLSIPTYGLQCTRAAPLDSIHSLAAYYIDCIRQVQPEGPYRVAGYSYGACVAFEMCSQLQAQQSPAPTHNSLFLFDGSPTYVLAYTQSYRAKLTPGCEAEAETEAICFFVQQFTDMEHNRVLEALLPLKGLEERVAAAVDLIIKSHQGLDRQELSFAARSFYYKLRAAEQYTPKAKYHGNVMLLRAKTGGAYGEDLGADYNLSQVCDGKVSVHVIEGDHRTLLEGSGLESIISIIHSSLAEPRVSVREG
Experiment: inhibition of human FAS-TE enzyme activity – biochemical, kinetic fluorescence intensity, dose response (AID 624326);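 note: rate of fluorescence rise from hydrolysis of a fluorogenic O-methyl fluorescein ester substrate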
Format: functional
Calls of active or inactive are those of the source.

See these solved cases before continuing.
COMPOUND: COc1ccccc1/C=C(\NC(=O)c1ccc(OC)c(OC)c1)C(=O)Nc1cc([N+](=O)[O-])ccc1C
TARGET_DESC: Fatty acid synthase (Homo sapiens)
TEST_READOUT: IC50
ENDPOINT_RESULT: 3.48 µM (active)
--
COMPOUND: COc1ccc(C2=NN(C(=O)CSc3nc(=O)n4ccc(C)cc4n3)C(c3ccc(C)cc3)C2)cc1 (centres undefined)
TARGET_DESC: Fatty acid synthase (Homo sapiens)
TEST_READOUT: IC50
ENDPOINT_RESULT: 8.93 µM (active)
--
COMPOUND: Cc1ccc2c(c1)C(c1ccccc1)N(C(=O)c1cccc([N+](=O)[O-])c1)CC(=O)N2 (centres undefined)
TARGET_DESC: Fatty acid synthase (Homo sapiens)
TEST_READOUT: IC50
ENDPOINT_RESULT: 2.53 µM (active)
--
COMPOUND: COc1ccccc1C(=O)COC(=O)c1cc([N+](=O)[O-])ccc1N1CCOCC1
TARGET_DESC: Fatty acid synthase (Homo sapiens)
TEST_READOUT: IC50
ENDPOINT_RESULT: 6.45 µM (active)
--
COMPOUND: CC(NC(=O)Cn1cc([N+](=O)[O-])cn1)c1ccc(C(C)(C)C)cc1 (centres undefined)
TARGET_DESC: Fatty acid synthase (Homo sapiens)
TEST_READOUT: IC50
ENDPOINT_RESULT: 4.54 µM (active)
--
COMPOUND: COc1cccc(NC(C)C(=O)Nc2cc([N+](=O)[O-])ccc2Cl)c1 (centres undefined)
TARGET_DESC: Fatty acid synthase (Homo sapiens)
TEST_READOUT: IC50
ENDPOINT_RESULT: 12.4 µM (active)

Summary for this compound, CC(C)(C)c1ccc(OCCC(=O)OCC(=O)N2c3ccccc3NC(=O)C2(C)C)cc1 : IC50 is 4.48 µM (active)

Record O=C(/C=C/c1cccc([N+](=O)[O-])c1)NCCSCc1ccc(Cl)cc1 . Reported IC50: 11.6 µM (active)

For reference, reported IC50 for CCO[C@H]1OC(C(=O)NCc2ccccc2)=C[C@@H](C2CCCCC2)[C@@H]1CCCO stands at 11.5 µM (active)

* * *

Below, each entry is listed alongside its reported IC50.
Biological target: Large T antigen (Simian virus 40, UniProt P03070)
Sequence (P03070 whole entry): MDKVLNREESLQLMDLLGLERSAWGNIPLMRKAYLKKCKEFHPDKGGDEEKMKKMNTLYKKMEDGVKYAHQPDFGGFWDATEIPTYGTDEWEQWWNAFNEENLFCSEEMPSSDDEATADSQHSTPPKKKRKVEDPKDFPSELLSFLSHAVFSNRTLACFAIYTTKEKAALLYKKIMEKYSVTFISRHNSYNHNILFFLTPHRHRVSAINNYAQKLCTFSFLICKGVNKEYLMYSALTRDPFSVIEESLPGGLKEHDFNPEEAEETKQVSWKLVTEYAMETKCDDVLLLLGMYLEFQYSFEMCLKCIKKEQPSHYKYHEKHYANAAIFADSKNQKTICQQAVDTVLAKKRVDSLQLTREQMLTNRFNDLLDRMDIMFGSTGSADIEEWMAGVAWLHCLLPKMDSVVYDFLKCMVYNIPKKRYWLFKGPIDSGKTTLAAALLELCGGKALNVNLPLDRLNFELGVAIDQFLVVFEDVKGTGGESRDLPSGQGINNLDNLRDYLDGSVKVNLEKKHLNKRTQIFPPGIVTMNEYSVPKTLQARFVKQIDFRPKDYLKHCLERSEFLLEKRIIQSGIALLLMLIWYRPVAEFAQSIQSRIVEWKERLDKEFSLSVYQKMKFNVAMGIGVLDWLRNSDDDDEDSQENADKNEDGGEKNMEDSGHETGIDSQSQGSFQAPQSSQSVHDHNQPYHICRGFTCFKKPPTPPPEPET
Assay type: functional, Betapolyomavirus macacae
Active and inactive are the calls of the source.

STRUCTURE: O=S(=O)(Nc1ccc(O)cc1)c1cccc2cccnc12
TARGET_DESC: Large T antigen (Simian virus 40, UniProt P03070)
IC50: 7.36 µM (active)
--
STRUCTURE: O=[N+]([O-])/C=C\c1ccc(N2CCOCC2)cc1
TARGET_DESC: Large T antigen (Simian virus 40, UniProt P03070)
IC50: > 100 µM (active)
--
STRUCTURE: Cc1cc(-c2nc3c4c5c(sc4nc(O)n3n2)CCC5)c(C)o1
TARGET_DESC: Large T antigen (Simian virus 40, UniProt P03070);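 note: Confirmatory-stage PubChem screen for compounds that inhibit SV40 T antigen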
IC50: 24.8 µM (active)

Next molecule, IC50 to be filled in.
The value of IC50 measured for the molecule CS(=O)(=O)c1ccc2c(c1)SC1=NC(=O)/C(=C/c3ccco3)C(=N)N12 turned out to be > 100 µM (active)

* * *

# EC50 per record follows
Test: Luminescence Cell-Based Dose Response HTS to Identify Activators of Luciferase Translation or Activity in H4 […] Cells. [Related pubchem assays: 1829 (Project Summary), 1814 (Primary HTS)]
Type: functional
Active and inactive are the calls of the source.

Use the examples below as a reference point.
COMPOUND: Cc1nc2ccccc2c(=O)n1NC(=O)/C=C/c1ccccc1Cl
ENDPOINT_RESULT: 12.2 µM (active)
--
COMPOUND: Cc1cc(NC(=O)CSc2nc3c(C)cccc3cc2C#N)no1
ENDPOINT_RESULT: > 120 µM (not active)
--
COMPOUND: Clc1ccc(-c2csc(N3CCC(c4ccccc4)C3)n2)cc1 (stereo unspecified)
ENDPOINT_RESULT: 25.7 µM (active)
--
COMPOUND: O=[N+]([O-])c1cccc(/N=C/C=C(/O)c2ccco2)c1
ENDPOINT_RESULT: 17 µM (active)
--
COMPOUND: COC(=O)c1ccc(C2OCC(C)(C)CO2)cc1
ENDPOINT_RESULT: 35.1 µM (active)

Then this compound:
The measured EC50 associated with O=C(O)c1ccc(N/N=C/C(Br)=C/c2ccccc2)cc1 reads < 0.1 µM (active)

* * *

Molecular target: Sentrin-specific protease 6 (Homo sapiens);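 note: Luminescence-based dose-response confirmatory assay of SENP6 inhibition, following up an ultra-high-throughput screen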
Assay type: functional
The source made the active and inactive calls.
Outcomes you can answer with include only these: true (active), false (inactive)

STRUCTURE: Cc1cc2nc(-c3ccc(SCC(=O)Nc4ccc(S(=O)(=O)NC5CC5)cc4)nc3)[nH]c2cc1C
CLASS_ASSIGNMENT: false

Request: Dear colleague, could you share the recorded outcome for O=C1NC(=O)/C(=C/c2ccc(-c3cccc([N+](=O)[O-])c3)o2)S1 when you have a moment?
Result: true

Request: For COc1cccc2sc(Nc3nc(-c4ccccn4)cs3)nc12 , what call appears in the results of this test?
Result: true

Request: Hi, do you know how COc1ccc(NC(=O)c2ccc(-c3ccccc3Cl)o2)cc1 came out in this test?
Result: true

Request: For O=C(Nc1ccccc1)N1CC=C(c2ccc(F)cc2)CC1 , which call appears in the assay record?
Result: true

* * *

Test system: Streptococcus
Assay: GAS UMAA2166 growth inhibition – luminescence, BacTiterGlo, counter-screen for streptokinase expression inhibitor project, dose response (AID 1915);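 note: potency for reduction of bacterial viability or growth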
Assay type: functional, organism-based
Calls of active or inactive are those of the source.
TEST_READOUT: EC50

Record Cc1ccc(N2C(=O)C3N=NN(CC(=O)N4N=C(c5cccc6ccccc56)CC4c4ccccc4)C3C2=O)cc1 (stereo not given) / Streptococcus, EC50 recorded as > 150 µM (not active)

Known value: Streptococcus EC50 of the compound O=C(Nc1cccc(NC(=O)c2ccc([N+](=O)[O-])o2)c1)c1ccco1 equals 22.7 µM (active)

Streptococcus EC50 of COc1ccccc1CNC(=O)c1ccc(-c2ccccc2Cl)o1 is 17.5 µM (active)

Kindly note: Streptococcus, Cc1ccc(/N=C/c2cccc(O)c2O)c(C)c1 , EC50 value reported: 7.41 µM (active)

Field EC50 (Streptococcus), entry COc1ccccc1C(=O)Nc1nnc(S(=O)(=O)N2CCN(c3ccc(F)cc3)CC2)s1 : 119 µM (inconclusive)

Just for reference, ChEMBL document CHEMBL1201862 is where these values come from.
